# SYSTEM NAME: Human ALDH3A1 (Homo sapiens, UniProt P30838)
# ASSAY TEXT: ALDH3A1 biochemical assay (benzaldehyde/NADP+, diaphorase-resazurin readout, 1,536-well)
# CONDITION INFO: Table S1, primary screen; curve class
ASSAY READOUT: CC-v2

COc1ccc(NC(=O)N[C@H]2C[C@@H](C(=O)N[C@@H](Cc3cccs3)C(N)=O)N(C(=O)CSC)C2)cc1    -2.2

(P) C[S+](=O)([O-])c1ccc(N2CCN(CC3(O)CNCCOC3)CC2)c(F)c1 (centres unmarked)
(Q) COc1ccc(OCc2cc(C(=O)NC(CO)C(C)C)no2)c2ccccc12 (centres unmarked)
Q. Sort P and Q by CC-v2 descending and give the first. Let me know the label of the one you choose.
A. Q
(Q: -1.2, P: -3)

----------
# SYSTEM NAME: OE19 (3A1) (Homo sapiens)
# ASSAY TEXT: Cellular ALDEFLUOR assay in OE19 cells (preferential ALDH3A1 expression)
# CONDITION INFO: Table S5, OE19 cells
ASSAY READOUT: Cell_Efficacy

Known Cell_Efficacy results, listed for orientation:
O=C(NCc1ccc2ccccc2c1)c1csc(N2CCN(c3cccc(C(F)(F)F)c3)CC2)n1 [Compound 17]    -93.35
Cc1cccc(COc2ccc(CNC(=O)c3csc(N4CCN(c5cccc(C(F)(F)F)c5)CC4)n3)cc2)c1 [NCGC01407816-01]    -99.22
CC(=O)c1ccc(CNC(=O)c2csc(N3CCN(c4cccc(C(F)(F)F)c4)CC3)n2)cc1 [NCGC01397292-01]    -111.50

(a) CC(C)(C)c1cc(CNC(=O)c2csc(N3CCN(c4cccc(C(F)(F)F)c4)CC3)n2)cc(C(C)(C)C)c1 [NCGC01407780-01]
(b) Cc1cc(CNC(=O)c2csc(N3CCN(c4cccc(C(F)(F)F)c4)CC3)n2)ccc1-c1ccccc1 [NCGC01407768-01]
(c) O=C(NCc1ccccc1-c1ccc(Cl)cc1Cl)c1csc(N2CCN(c3cccc(C(F)(F)F)c3)CC2)n1 [NCGC01407762-01]
(d) O=C(NCc1ccc2c(c1)C(=O)NCC2)c1csc(N2CCN(c3cccc(C(F)(F)F)c3)CC2)n1 [NCGC01397286-01]
Q. # sort list by recorded Cell_Efficacy, greatest to least Could you list the labels in the order requested?
A. a, d, c, b
(a: 0.00, d: -10.99, c: -62.69, b: -93.67)

----------
# SYSTEM NAME: Human ALDH3A1 (Homo sapiens, UniProt P30838)
# ASSAY TEXT: ALDH3A1 biochemical assay (benzaldehyde/NADP+, diaphorase-resazurin readout, 1,536-well)
# CONDITION INFO: Table S5, biochemical
ASSAY READOUT: Efficacy

N#CSc1ccc(NC(=O)c2csc(N3CCN(c4cccc(C(F)(F)F)c4)CC3)n2)c(F)c1 [NCGC01407980-01]    -102.93

(1) O=C(NCc1ccc2cc(Cl)ccc2c1)c1csc(N2CCN(c3cccc(C(F)(F)F)c3)CC2)n1 [NCGC01407805-01]
(2) O=C(NCc1ccccc1-c1ccc(Cl)cc1Cl)c1csc(N2CCN(c3cccc(C(F)(F)F)c3)CC2)n1 [NCGC01407762-01]
(3) Cc1cccc(COc2ccc(CNC(=O)c3csc(N4CCN(c5cccc(C(F)(F)F)c5)CC4)n3)cc2)c1 [NCGC01407816-01]
Q. # ascending order, key=Efficacy Could you list the labels in the order requested?
A. 1, 3, 2
(1: -102.00, 3: -21.51, 2: 0.00)

----------
# SYSTEM NAME: OE19 (3A1) (Homo sapiens, UniProt P30838)
# Sequence (P30838 1-453): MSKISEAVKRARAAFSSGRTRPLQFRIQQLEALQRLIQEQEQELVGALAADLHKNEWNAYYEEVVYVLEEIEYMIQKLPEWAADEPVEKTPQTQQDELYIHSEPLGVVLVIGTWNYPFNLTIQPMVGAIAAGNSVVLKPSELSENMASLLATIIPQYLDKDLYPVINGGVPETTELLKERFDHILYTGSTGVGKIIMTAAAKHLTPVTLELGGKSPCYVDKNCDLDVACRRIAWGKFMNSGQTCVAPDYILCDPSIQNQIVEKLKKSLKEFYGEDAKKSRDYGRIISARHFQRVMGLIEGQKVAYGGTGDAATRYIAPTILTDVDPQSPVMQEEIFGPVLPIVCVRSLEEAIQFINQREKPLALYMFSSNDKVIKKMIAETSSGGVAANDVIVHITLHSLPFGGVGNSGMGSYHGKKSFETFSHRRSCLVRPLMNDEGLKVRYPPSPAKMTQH
# ASSAY TEXT: Cellular ALDEFLUOR assay in OE19 cells (preferential ALDH3A1 expression)
# CONDITION INFO: Table S4, OE19 cells
ASSAY READOUT: Cell_Efficacy

Known Cell_Efficacy results, listed for orientation:
Cc1cccc(CNC(=O)c2csc(N3CCN(c4ccc(F)c(Cl)c4)CC3)n2)c1    -76.59
COc1ccc(N2CCN(c3nc(C(=O)NCc4cccc(C(F)(F)F)c4)cs3)CC2)cc1    -97.51
COc1ccc(N2CCN(c3nc(C(=O)NCc4cccc(C)c4)cs3)CC2)c(OC)c1    -87.39
Cc1cccc(CNC(=O)c2csc(N3CCN(c4ccc(OCCF)cc4)CC3)n2)c1    -87.33

(P) Cc1cccc(CNC(=O)c2csc(N3CCN(c4ccc(OC(F)(F)F)cc4)CC3)n2)c1
(Q) Cc1cccc(CNC(=O)c2csc(N3CCN(c4ccc(C5(C#N)CCCCC5)cc4)CC3)n2)c1
Q. Sort P and Q by Cell_Efficacy descending and give the first. Let me know the label of the one you choose.
A. Q

(P) Cc1cccc(CNC(=O)c2csc(N3CCN(c4ccc(C)c(C)c4)CC3)n2)c1
(Q) Cc1cccc(CNC(=O)c2csc(N3CCN(c4cc(C(F)(F)F)nc5ccccc45)CC3)n2)c1
Q. Smaller Cell_Efficacy value, P vs Q ? Let me know the label of the one you choose.
A. P

(P) Cc1cccc(CNC(=O)c2csc(N3CCN(c4cccc(OCc5ccc(Cl)cc5)c4)CC3)n2)c1
(Q) Cc1cccc(CNC(=O)c2csc(N3CCN(c4cccc([N+](=O)[O-])c4)CC3)n2)c1
Q. Smaller Cell_Efficacy value, P vs Q ? Let me know the label of the one you choose.
A. Q
(Q: -115.29, P: -79.67)

(1) Cc1cccc(CNC(=O)c2csc(N3CCN(c4cccc(C#N)c4)CC3)n2)c1
(2) Cc1cccc(CNC(=O)c2csc(N3CCN(c4ccc(C5(C#N)CC5)cc4)CC3)n2)c1
(3) Cc1cccc(CNC(=O)c2csc(N3CCN(c4ccc(C(N)=O)cc4)CC3)n2)c1
Q. # ascending order, key=Cell_Efficacy Could you list the labels in the order requested?
A. 1, 2, 3
(1: -103.93, 2: -71.00, 3: -43.91)

(I) Cc1cccc(CNC(=O)c2csc(N3CCN(c4cc(F)cc(F)c4)CC3)n2)c1
(II) Cc1cccc(CNC(=O)c2csc(N3CCN(c4c(Cl)cccc4Cl)CC3)n2)c1
Q. Sort I and II by Cell_Efficacy descending and give the first. Let me know the label of the one you choose.
A. II

----------
# SYSTEM NAME: OE19 (3A1) (Homo sapiens)
# ASSAY TEXT: Cellular ALDEFLUOR assay in OE19 cells (preferential ALDH3A1 expression)
# CONDITION INFO: Table S4, cellular curve class
ASSAY READOUT: Cell_CC-v2

COc1cc(N2CCN(c3nc(C(=O)NCc4cccc(C)c4)cs3)CC2)ccc1F [NCGC01211397-01]    -1.1
Cc1cccc(CNC(=O)c2csc(N3CCN(c4ccccc4C)CC3)n2)c1 [NCGC01211138-01]    -1.1
Cc1cccc(CNC(=O)c2csc(N3CCN(c4cccc([S+](=O)([O-])C(F)(F)F)c4)CC3)n2)c1 [NCGC01210726-01]    -1.2

(P) Cc1cccc(CNC(=O)c2csc(N3CCN(c4cccc(Sc5ccc(C)cc5C)c4)CC3)n2)c1 [NCGC01211184-01]
(Q) Cc1cccc(CNC(=O)c2csc(N3CCN(c4c(F)cccc4F)CC3)n2)c1 [NCGC01211383-01]
Q. Sort P and Q by Cell_CC-v2 descending and give the first. Let me know the label of the one you choose.
A. P

----------
# SYSTEM NAME: Human ALDH3A1 (Homo sapiens)
# Sequence (P30838 1-453): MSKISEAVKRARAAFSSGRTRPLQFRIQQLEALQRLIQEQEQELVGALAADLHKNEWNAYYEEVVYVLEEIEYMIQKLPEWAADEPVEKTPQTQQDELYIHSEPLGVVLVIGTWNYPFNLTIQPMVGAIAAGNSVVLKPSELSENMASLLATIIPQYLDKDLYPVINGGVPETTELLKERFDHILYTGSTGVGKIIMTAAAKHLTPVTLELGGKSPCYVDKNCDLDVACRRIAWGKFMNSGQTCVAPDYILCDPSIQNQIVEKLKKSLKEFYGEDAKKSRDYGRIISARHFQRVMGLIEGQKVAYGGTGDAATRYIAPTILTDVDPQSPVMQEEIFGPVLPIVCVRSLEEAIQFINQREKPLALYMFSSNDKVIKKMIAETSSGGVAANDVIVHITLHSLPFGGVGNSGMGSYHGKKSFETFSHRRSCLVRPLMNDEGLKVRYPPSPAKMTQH
# ASSAY TEXT: ALDH3A1 biochemical assay (benzaldehyde/NADP+, diaphorase-resazurin readout, 1,536-well)
# CONDITION INFO: Table S2, in-house analogs
ASSAY READOUT: Efficacy

Known Efficacy results, listed for orientation:
COc1cccc(N2CCN(c3nc(C(=O)NCc4cccc(C)c4)cs3)CC2)c1    -72.54
COc1cc(F)ccc1-c1cc(C(=O)NCCC(N)=O)c2c(c1)N(C)CCO2    -27.04
COc1ccc(-n2nc(C)c([C@@H]3C=C[C@@H](NCc4cccc(Cl)c4)C3)c2C)cc1    -46.23
O=C(NCc1cccs1)c1csc(N2CCN(c3ccc(F)cc3)CC2)n1    -65.35
COc1ccc(N2CCN(c3nc(C(=O)NC4CC4)cs3)CC2)cc1    -32.51
COc1ccc(N2CCN(c3nc(C(=O)NCC4CCCCC4)cs3)CC2)cc1    -27.44
COc1ccc(N2CCN(c3nc(C(=O)NCc4ccccc4C)cs3)CC2)cc1    -54.85
COc1cccc(N2CCN(c3nc(C(=O)NCc4ccco4)cs3)CC2)c1    -54.71

(P) COc1cccc(N2CCN(c3nc(C(=O)NCc4ccncc4)cs3)CC2)c1
(Q) COc1cccc(N2CCN(c3nc(C(=O)NCc4ccccc4F)cs3)CC2)c1
(R) COc1ccc(-n2nc(C)c([C@@H]3C=C[C@@H](NCc4ccccc4)C3)c2C)cc1
Q. # sort list by recorded Efficacy, greatest to least Could you list the labels in the order requested?
A. R, Q, P
(R: -31.39, Q: -45.69, P: -75.42)

(a) O=C(NCc1cccs1)c1csc(N2CCN(c3ccccc3F)CC2)n1
(b) Cc1nn(-c2ccc(C(F)(F)F)cc2)c(C)c1[C@@H]1C=C[C@@H](NCc2ccc(N(C)C)cc2)C1
Q. Sort a and b by Efficacy descending and give the first. Let me know the label of the one you choose.
A. b
(b: -37.26, a: -78.52)

(a) O=C(NCc1ccncc1)c1csc(N2CCN(c3ccccc3F)CC2)n1
(b) Fc1ccc2[nH]c(CO[C@H]3CN(Cc4ccc5ccccc5n4)C[C@H]3F)nc2c1
Q. Sort a and b by Efficacy descending and give the first. Let me know the label of the one you choose.
A. a
(a: -57.30, b: -92.90)
